Each record here notes measured Kd.
Tested on: PKAC-alpha
Construct: gene PRKACA
VALUE_TYPE: Kd

# SMILES_REPR, STUDY_TARGET, MEASURED_RESULT
rows = [
    ("CCn1c(-c2ccccn2)nc2cnccc21", "PKAC-alpha", "> 10 µM"),
    ("Fc1cc(Cl)ccc1Nc1ccnc2cc(-c3ccc(CN4CCCCC4)o3)ccc12", "PKAC-alpha", "> 10 µM"),
]

====

System: MYO3A
ASSAY_SETUP: concentration: 1 μM, replicates: in singlicate; n = 1

# COMPOUND, %Inh
rows = [
    ("Cn1ccc2ncnc(Oc3ccc(NC(=O)Nc4ccccc4)cc3)c21", "5%"),
    ("Cc1cccc(-c2nc(Nc3ccncc3)c3ccccc3n2)n1", "0%"),
    ("CS(=O)(=O)c1ccc(-c2nc3n(c2-c2ccncc2)CCC3)cc1", "25%"),
    ("O=S(=O)(c1ccc(-c2ccnc3[nH]ccc23)cc1)N1CCCC1", "10%"),
    ("Cn1ccc2ncnc(Oc3cccc(C(=O)Nc4ccccc4)c3)c21", "0%"),
    ("Cc1cccc(-c2nc(-c3ccc(S(C)(=O)=O)cc3)sc2-c2ccnc(NCCc3ccccc3)c2)c1", "10%"),
    ("COC(=O)c1c(-c2ccccc2)c2cc(C(=O)O)ccc2c(=O)n1Cc1ccccc1", "0%"),
    ("COc1ccccc1CNC(=O)c1cc(C(=O)c2ccccc2C)c[nH]1", "6%"),
    ("Cc1c(Cn2ccn3c(=O)cc(N4CCOCC4)nc23)cccc1C(F)(F)F", "12%"),
    ("Cc1ccccc1-n1cnc2c(N)ncnc21", "0%"),
    ("O=C(Nc1n[nH]c2nc(-c3nccs3)c(Br)cc12)C1CC1", "0%"),
    ("O=C(Nc1n[nH]c2nc(-c3nccs3)c(Br)cc12)C1CCCC1", "0%"),
    ("Nc1nc(-c2nccs2)c(-c2ccnc3ccccc23)s1", "3%"),
    ("CC(=O)Nc1nc2cnc(Nc3cc(NC(=O)c4cccc(CCC#N)c4)ccc3C)nc2s1", "13%"),
    ("NC(=O)c1nnc2ccccc2c1N", "9%"),
    ("COc1cc2ncnc(Nc3ccc4nc(-c5ccccc5)[nH]c4c3)c2cc1OC.Cl", "21%"),
    ("COc1ccc(C2=C(Nc3cccc(C(=O)O)c3)C(=O)NC2=O)cc1", "12%"),
    ("COc1ccc(CNC(=O)NC2CCN(c3ccnc(Nc4cc(OC)c(OC)c(OC)c4)n3)C2)cc1 (stereo not shown)", "36%"),
    ("CC(C)(C)c1ccc(C(=O)Nc2cn3cc(Cl)ccc3n2)cc1", "7%"),
]

====

System: PRKX
ASSAY_SETUP: concentration: 1 μM, replicates: in singlicate; n = 1

# SMILES_REPR, STUDY_TARGET, %Inh [%]
records = [
    ("O=C(Nc1ccccc1)Nc1cccc(Oc2ccc3nccn3n2)c1", "PRKX", 0),
    ("O=C(Nc1n[nH]c2nc(-c3nccs3)c(Br)cc12)C1CCCC1", "PRKX", 0),
    ("CN1C(=O)C(Nc2ccc(Cl)c(C(=O)O)c2)=C(c2ccc(Cl)cc2)C1=O", "PRKX", 0),
]

====

Tested on: ERN1
ASSAY_SETUP: concentration: 1 μM, replicates: in singlicate; n = 1
Parameter %Inh: see the listing below.
VALUE_TYPE: %Inh (%)

# MOLECULE, VALUE_TYPE, RESULT_UNITS, MEASURED_RESULT
data = [
    ("O=C1NC(=O)C(N2CCc3ccccc32)=C1c1ccccc1Cl", "%Inh", "%", 13),
    ("Fc1cc(Cl)ccc1Nc1ccnc2cc(I)ccc12", "%Inh", "%", 2),
    ("CCn1c(-c2cccnc2O)nc2cnccc21", "%Inh", "%", 0),
    ("CC(=O)Nc1nc2cnc(Nc3cc(NC(=O)c4cccc(CCC#N)c4)ccc3C)nc2s1", "%Inh", "%", 0),
    ("CC(C)(C)c1ccc(C(=O)Nc2cn3cc(-c4cccnc4)ccc3n2)cc1", "%Inh", "%", 12),
    ("Fc1cc(Cl)ccc1Nc1ccnc2cc(-c3ccc(CN4CCCCC4)o3)ccc12", "%Inh", "%", 0),
    ("COc1ccccc1-c1ccc2c(NC(=O)C3CC3)n[nH]c2n1", "%Inh", "%", 0),
    ("Cl.NC(=O)c1cccc(Nc2nccc(Nc3ccc(Oc4cccc(Cl)c4)c(Cl)c3)n2)c1", "%Inh", "%", 19),
    ("COc1cc2ncn(-c3cc(OCC4CCCO4)c(C(N)=O)s3)c2cc1OC (stereo not drawn)", "%Inh", "%", 0),
    ("Cn1ccc2ncnc(Oc3cccc(C(=O)Nc4ccccc4)c3)c21", "%Inh", "%", 29),
    ("Cc1c(O)cccc1Nc1ccnc2ccc(C(F)(F)F)cc12.Cl", "%Inh", "%", 0),
    ("Cc1cccc(-c2nc(-c3ccc(S(C)(=O)=O)cc3)sc2-c2ccnc(NCCc3ccccc3)c2)c1", "%Inh", "%", 0),
    ("COc1ccc(CNC(=O)NC2CCN(c3ccnc(Nc4cc(OC)c(OC)c(OC)c4)n3)C2)cc1 (stereo not drawn)", "%Inh", "%", 0),
    ("O=c1cc(N2CCOCC2)nc2n(Cc3cccc(Cl)c3Cl)ccn12", "%Inh", "%", 0),
    ("O=C(Nc1n[nH]c2nc(-c3nccs3)c(Br)cc12)C1CC1", "%Inh", "%", 0),
    ("COc1ccc(C2=C(Nc3cccc(C(=O)O)c3)C(=O)NC2=O)cc1", "%Inh", "%", 21),
    ("C[C@@H]1CCCCN1c1cc(-c2ccc3c(N)n[nH]c3c2)nc(N)n1", "%Inh", "%", 0),
    ("COC(=O)c1c(-c2ccccc2)c2cc(C(=O)O)ccc2c(=O)n1Cc1ccccc1", "%Inh", "%", 0),
]

====

Tested on: RPS6KA5(Kin.Dom.2-C-terminal)
pKd: −log10 of the molar value.
VALUE_TYPE: pKd

# SMILES_REPR, MEASURED_RESULT
records = [
    ("Cc1cccc(-c2cc(Nc3ccncc3)c3ccccc3n2)n1", "< 5.00"),
]

====

Each record here notes measured %Inh.
Test system: PIK3CA
ASSAY_SETUP: concentration: 1 μM, replicates: in singlicate; n = 1
VALUE_TYPE: %Inh (%)

# COMPOUND, VALUE_TYPE, RESULT_UNITS, MEASURED_RESULT
records = [
    ("Cc1cccc(-c2nc(C)cc(Nc3ccncc3)n2)n1 [GSK257997]", "%Inh", "%", 3),
    ("Cc1cccc(-c2nc(Nc3ccc4[nH]ncc4c3)c3ccccc3n2)n1 [GW857175]", "%Inh", "%", 0),
    ("Cc1ccc(C(=O)Nc2ccc(Nc3ccnc4cc(-c5ccccn5)ccc34)cc2O)cc1.Cl [GW440146]", "%Inh", "%", 0),
    ("O=S(=O)(c1ccc(-c2ccnc3[nH]ccc23)cc1)N1CCCC1 [GSK846226]", "%Inh", "%", 8),
    ("CS(=O)(=O)c1ccc(-c2c(-c3ncn[nH]3)sc(N3CCOCC3)c2C#N)cc1", "%Inh", "%", 96.9),
    ("O=C(O)COc1ncnc2cc(-c3ccc4[nH]ncc4c3)sc12", "%Inh", "%", 0),
    ("COc1cc2ncnc(Nc3ccc4nc(-c5ccccc5)[nH]c4c3)c2cc1OC.Cl [GW282450]", "%Inh", "%", 0),
    ("Nc1nc(-c2nccs2)c(-c2ccnc3ccccc23)s1 [GW693542]", "%Inh", "%", 0),
    ("COc1ccc(Nc2nccc(NCCNC(=O)Nc3ccccc3F)n2)cc1 [GSK1379901]", "%Inh", "%", 0),
    ("Cc1c(Cn2ccn3c(=O)cc(N4CCOCC4)nc23)cccc1C(F)(F)F [GSK2289044]", "%Inh", "%", 21),
    ("Cn1ccc2ncnc(Oc3cccc(C(=O)Nc4ccccc4)c3)c21", "%Inh", "%", 0),
    ("CC(=O)Nc1nc2cnc(Nc3cc(NC(=O)c4cccc(CCC#N)c4)ccc3C)nc2s1", "%Inh", "%", 2),
    ("O=C1NC(=O)C(N2CCc3ccccc32)=C1c1ccccc1Cl [SB-373598]", "%Inh", "%", 0),
    ("Cc1ccc(-c2cc(-c3c[nH]nc3-c3ccccn3)ccn2)cc1 [GW684088]", "%Inh", "%", 2),
    ("Cc1csc(-c2nc(Nc3ccncc3)c3ccccc3n2)n1 [GW869640]", "%Inh", "%", 13),
    ("Cl.O=C(Nc1cccc(-c2nn3ncccc3c2-c2ccnc(Nc3cccnc3)n2)c1)c1c(F)cccc1F [GSK312879]", "%Inh", "%", 0),
    ("CCn1c(-c2cccnc2O)nc2cnccc21 [SB-736715]", "%Inh", "%", 0),
    ("Cc1cccc(-c2cc(Nc3ccncc3)c3ccccc3n2)n1 [GSK223675]", "%Inh", "%", 7),
    ("Cc1cc(N2Cc3ccccc3C2)nc(Nc2ccc(S(=O)(=O)N3CCOCC3)cc2)n1.Cl [GSK1669917]", "%Inh", "%", 0),
]
